- ASSAY_TARGET: Mineralocorticoid receptor (Homo sapiens)
- Sequence (P08235 whole entry): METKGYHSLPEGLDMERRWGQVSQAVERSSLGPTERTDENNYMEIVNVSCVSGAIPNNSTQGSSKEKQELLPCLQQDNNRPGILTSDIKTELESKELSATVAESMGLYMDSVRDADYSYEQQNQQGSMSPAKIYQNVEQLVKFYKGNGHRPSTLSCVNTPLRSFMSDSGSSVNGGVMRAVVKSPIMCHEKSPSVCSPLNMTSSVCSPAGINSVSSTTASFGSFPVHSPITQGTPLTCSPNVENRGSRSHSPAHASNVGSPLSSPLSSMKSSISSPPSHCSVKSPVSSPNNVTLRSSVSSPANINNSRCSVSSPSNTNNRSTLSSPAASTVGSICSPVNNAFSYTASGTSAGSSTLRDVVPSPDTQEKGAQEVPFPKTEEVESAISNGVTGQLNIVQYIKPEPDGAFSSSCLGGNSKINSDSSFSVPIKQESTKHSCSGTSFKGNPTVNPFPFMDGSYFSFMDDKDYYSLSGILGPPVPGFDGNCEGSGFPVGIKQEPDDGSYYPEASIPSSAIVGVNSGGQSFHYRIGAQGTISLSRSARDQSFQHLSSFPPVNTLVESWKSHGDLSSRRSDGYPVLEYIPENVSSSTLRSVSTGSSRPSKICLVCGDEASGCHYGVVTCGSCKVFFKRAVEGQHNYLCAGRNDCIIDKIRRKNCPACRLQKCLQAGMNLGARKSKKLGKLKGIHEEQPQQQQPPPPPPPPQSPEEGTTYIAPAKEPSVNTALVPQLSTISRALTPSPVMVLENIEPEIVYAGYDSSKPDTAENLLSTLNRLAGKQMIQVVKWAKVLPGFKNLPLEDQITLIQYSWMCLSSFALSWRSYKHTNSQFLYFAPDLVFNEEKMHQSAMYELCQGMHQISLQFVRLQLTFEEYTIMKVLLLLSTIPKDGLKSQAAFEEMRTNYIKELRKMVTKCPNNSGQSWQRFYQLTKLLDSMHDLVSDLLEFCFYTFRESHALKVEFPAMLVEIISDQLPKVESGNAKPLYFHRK
Give pIC50 for every item shown.
In plain terms, pIC50 is the concentration in mol/L turned into minus its base-10 logarithm.

## Input Output pIC50 of COc1ccc(F)cc1C(C)(C)CC(O)(CN1CCC(=O)c2ccccc21)C(F)(F)F (stereo not given)
## Output 6.89

## Input Output pIC50 of COc1ccc(F)cc1C(C)(C)CC(O)(Cn1ccc(=O)c2ncccc21)C(F)(F)F (stereo not given)
## Output 5.96

## Input Output pIC50 of COc1ccc(F)cc1C(C)(C)CC(O)(C(=O)Nc1ccc2c(=O)onc(C)c2c1)C(F)(F)F (stereo not given)
## Output 6.89

## Input Output pIC50 of Cc1ccc(O)c(C(C)(C)CC(O)(Cn2ccc(=O)c3ccccc32)C(F)(F)F)c1 (stereo not given)
## Output 6.80

## Input Output pIC50 of COc1ccc(F)cc1C(C)(C)CC(O)(CN1C[C@@H](C)C(=O)[C@@H](C)C1)C(F)(F)F (stereo not given in full)
## Output 6.37

Data provenance: ChEMBL document CHEMBL1138857
